test: qHTS drug screen for cell cycle checkpoint inhibitors in PARPi-resistant BRCA-mutant ovarian cancer cell lines. (AID 1963452); conditions: PEO1/OlaR viability, CellTiter-Glo luminescence, 96 h; measured here: PEO4 Z-AUC; stronger effect = lower value
The label is Y for Z-AUC below -0.003 and N for Z-AUC equal to or exceeding -0.003.

These solved cases illustrate the format of a correct answer.
# chem-smiles, assigned-label
rows = [
    ("O=C(Nc1cn[nH]c1-c1nc2ccc(CN3CCOCC3)cc2[nH]1)NC1CC1", "Y"),
    ("Cc1nc(N)ncc1-c1nc(N2CCOCC2)c2sc(C(C)(C)O)cc2n1", "N"),
    ("CN1CCC(CNc2ccc3ncc(-c4cccc(OC(F)(F)F)c4)n3n2)CC1", "N"),
    ("CC(C)c1nn(-c2c(Cl)cccc2Cl)c2nc(Cc3ccc(OCCO)cc3)[nH]c(=O)c12", "Y"),
]

Query: In plain terms, does Nc1cc(C(F)(F)F)c(-c2cc(N3CCOCC3)nc(N3CCOCC3)n2)cn1 come in under -0.003 for Z-AUC?
Response: Y
